Parameter: rate of phagocytosis, antibody 1 µg/mL. Scope: all listed entries.
# Assayed Target: CD47 on HL60 cells (UniProt Q08722 19-323, limits assumed)
# Assay Comment: cell-based or functional assay
Numeric answer plus unit only.

Worked cases, answers included:
hz3F10-6.1 (antibody, human IgG4 S228P, kappa, V domains shown, humanized 3F10, full-length heavy and light chains) VH: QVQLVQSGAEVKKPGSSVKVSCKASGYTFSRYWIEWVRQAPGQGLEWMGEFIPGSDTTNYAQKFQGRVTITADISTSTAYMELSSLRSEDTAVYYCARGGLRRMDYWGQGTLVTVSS VL: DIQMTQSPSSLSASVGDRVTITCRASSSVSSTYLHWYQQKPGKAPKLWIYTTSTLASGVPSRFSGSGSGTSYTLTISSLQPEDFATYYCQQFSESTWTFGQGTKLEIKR | 47.6%
hz3F10-3.2 (antibody, human IgG4 S228P, kappa, V domains shown, humanized 3F10, full-length heavy and light chains) VH: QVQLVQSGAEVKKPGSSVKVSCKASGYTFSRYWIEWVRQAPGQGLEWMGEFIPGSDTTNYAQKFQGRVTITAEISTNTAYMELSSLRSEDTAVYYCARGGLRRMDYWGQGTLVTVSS VL: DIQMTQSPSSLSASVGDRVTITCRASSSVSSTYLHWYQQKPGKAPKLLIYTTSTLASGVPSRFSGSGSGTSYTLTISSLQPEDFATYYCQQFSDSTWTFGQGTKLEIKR | 47%
hz14A9-2.4 (antibody, human IgG4 S228P, kappa, V domains shown, humanized 14A9, full-length heavy and light chains) VH: QVQLVQSGAEVKKPGASVKVSCKVSGFNIEDDYIEWVRQAPGQGLEWMGRIDPANDKTKYAQKFQGRVTMTGDTSTNTVYMELSSLRSEDTAVYYCTRPGLRRYYSMDYWGQGTLVTVSS VL: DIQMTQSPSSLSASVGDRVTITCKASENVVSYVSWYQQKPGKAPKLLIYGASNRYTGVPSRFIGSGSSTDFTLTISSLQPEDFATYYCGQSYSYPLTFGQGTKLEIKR | 81.7%

Here is the next item to consider.
Notebook: hz3F10-4.1 (antibody, human IgG4 S228P, kappa, V domains shown, humanized 3F10, full-length heavy and light chains) VH: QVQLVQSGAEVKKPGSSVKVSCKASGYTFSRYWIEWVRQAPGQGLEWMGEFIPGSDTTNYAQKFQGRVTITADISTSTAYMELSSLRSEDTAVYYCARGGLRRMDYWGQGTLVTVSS VL: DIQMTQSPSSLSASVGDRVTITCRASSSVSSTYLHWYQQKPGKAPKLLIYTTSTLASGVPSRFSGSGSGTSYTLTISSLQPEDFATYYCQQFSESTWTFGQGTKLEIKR , rate of phagocytosis, antibody 1 µg/mL read as 50.3%
